// data source = a melting point compilation (Tetko et al.; mined from patent text by program, amines drawn as free bases though some values may be those of a salt)

The compounds listed here are annotated with their melting point.

Compound	melting point
COc1ccc(-c2cc(=O)n(Cc3ccc(Cl)cc3Cl)nc2-c2ccc(OC)cc2)cc1	141 °C
O=C1CCCCC1(CCCCCOc1ccccc1)c1ccccc1 (stereo not given)	69 to 72 °C
OCc1cnoc1-c1ccc(OC(F)(F)F)cc1	45 to 46 °C
COc1ccc2c(c1)[nH]c1cc(OC)ccc12	273 to 274 °C
Cc1nc(N2C[C@@H](C)N(Cc3ccc(F)cc3)C2=O)sc1C(=O)NCc1cccnc1	135 to 136 °C
N#Cc1ccc(N2CCC(N3CCCC3)CC2)cc1	88 to 89 °C
COc1ccc(C(=O)NCCBr)c([N+](=O)[O-])c1	134 °C
COCCOc1cc(N(C)S(=O)(=O)c2ccccn2)c2[nH]c(C3=NCC(CC(=O)O)S3)cc2c1 (stereo not given)	107 to 109 °C
O=S1(=O)Oc2ccccc2Nc2ncccc21	208 to 209 °C
CN(C)c1ccc(C=CC(=O)C=Cc2ccc(N(C)C)cc2)cc1	174 to 176 °C

###

The compounds listed here are annotated with their melting point.
Readout Label: melting point

Compound	Readout Label	Observed Measurement
Nc1ccc(C(=O)Nc2ccc3oc4c(c3c2)CCCC4)cc1	melting point	207 to 208 °C
O=C(Nc1ccc(C(F)(F)F)cc1)C(Cl)=NNc1ccc(Cl)cc1	melting point	167 to 168 °C
Cc1cc2c(cc1N1CCCCCC1)OC(=O)C2C (stereo not given)	melting point	58 to 60 °C
Cc1cc2oc(=O)c3c(c2cc1NC(=O)c1ccccc1)CCN(CCN1CC2CCC(CC2)C1)C3	melting point	174 to 176 °C
O=C(CCCl)N1CCc2ccc([N+](=O)[O-])cc21	melting point	127 to 128 °C

###

The molecules listed here are annotated with their melting point.

Molecule	melting point (°C)
O=C(Cc1ccc(O)c(Cl)c1)Oc1cc(Cl)c(Cl)cc1Cl	77
CC(C)(C)OC(=O)NC(Cc1ccc(C=O)cc1)C(=O)N1CCCC1 (stereo not given)	134
Cc1ccc(S(=O)(=O)NC(=O)CC2(c3ccc(OCc4ccc5ccccc5n4)cc3)CCCC2)cc1	80
O=C(O)c1cccc(P(c2ccccc2)c2ccccc2)n1	122

###

The compounds listed here are annotated with their melting point.
Readout Label: melting point (°C)

Compound	Observed Measurement
CN1C(C)(C)CC(OP2OCC3(CO2)COP(OC2CC(C)(C)N(C)C(C)(C)C2)OC3)CC1(C)C (stereo not given)	106
COC(=O)CCCc1cc2nc(C(F)(F)F)ccc2n1S(=O)(=O)c1cccc(OC(F)(F)F)c1	72
CCCCCCCCCCCCc1ccc(C(=O)c2ccccc2C(=O)O)cc1	85

###

The compounds listed here are annotated with their melting point.
Readout Label: melting point

Compound	Readout Label	Observed Measurement
CC[C@@H]1CN(c2c(F)c(N)c3c(=O)c(C(=O)O)cn(C4CC4)c3c2OC)CC[C@H]1O (relative stereo)	melting point	217 to 219 °C
Nc1nsc2nc3ccccc3n12	melting point	255 to 256 °C
Cc1nnc(-c2sc(N3CCN(Cc4ccccc4)C3=O)nc2C)[nH]1	melting point	284 to 287 °C
COC(=O)c1cccc2c1nc(/C=C/c1ccc(OC)c(OC)c1)n2C	melting point	187 to 189 °C
O=c1cc(O)nc2sc(CCC3CCCCC3)nn12	melting point	215 to 219 °C
Nn1c(=O)c(=O)[nH]c2ccc3ccc([N+](=O)[O-])cc3c21	melting point	> 240 °C
NC(=O)C1CN(Cc2ccccc2)CCN1 (stereo not given)	melting point	168 °C
COc1ccc(COC(=O)c2cc(Br)nn2-c2ncccc2Cl)cc1	melting point	83 °C
COc1c(C#C[Si](C)(C)C)cc(-n2ccc(=O)[nH]c2=O)cc1-c1ccc2cc(NS(C)(=O)=O)ccc2c1	melting point	175 to 178 °C
Cc1nnnn1-c1ccc(/C(=C\C2CCCC2)C(=O)O)cc1F	melting point	182 to 185 °C

###

The compounds listed here are annotated with their melting point.
Readout Label: melting point

Compound	Observed Measurement
CCOC(=O)c1c(N)c2cccnc2n(C2CCCCC2)c1=O	172 to 175 °C
CCOC(=O)c1cc(OC)c2c(OC(C)C)ccc(Br)c2c1	62 °C
N#CC1(C#N)C2C=CC(C2)C1(Cl)C(F)(F)F (stereo unspecified)	173 °C
C[C@@H](Cn1ccc2ccc3ncccc3c21)NC(=O)OC(C)(C)C	185 °C
CS(=O)(=O)Nc1ccccc1OCCCN1CCC(OC(c2ccccc2)c2ccsc2)CC1 (stereo unspecified)	79.5 to 82 °C
O=C(O)C(CCc1ccccc1)NS(=O)(=O)c1ccc2c(c1)S(=O)(=O)c1ccccc1O2 (stereo unspecified)	170 to 174 °C
COc1ccc2c(c1)C(=O)NCc1c(-c3nc(C4CC4)no3)ncn1-2	245 °C
OCCCCCCCCOc1ccc(-c2ccccc2)cc1	101 to 103 °C
C=CC(=O)Nc1n[nH]c2cc(Cl)ccc12	205 °C
CCOC(=O)c1cn(C2CC2)c2nc(N3CCC(NC)C3)c(F)cc2c1=O (stereo unspecified)	164 to 166 °C
COc1cc(C)cc(C(O)=S)c1OC	139 to 141 °C
COc1ccc(-c2cc(=O)c3ccc(OCC(O)CNC(C)C)cc3o2)cc1OC (stereo unspecified)	144 to 145 °C
CC(C)(CCCCCC(=O)CCCCCC1(C(=O)O)CC1)C(=O)O	65 to 66 °C
COc1ccc(C(C)=Cc2ccc3ccccc3c2)cc1	141 °C
COC(=O)Cc1nc(-c2ccc(Cl)cc2)oc1Oc1cccc([N+](=O)[O-])c1	97 to 99 °C
CS(=O)(=O)N1CCN([C@@H](CNS(=O)(=O)c2ccc(OCc3cccc4ccccc34)cc2)C(=O)NO)CC1	148 °C
O=C(O)/C=C/c1cccc(-c2nc(=O)c3ccccc3s2)n1	116 °C
COC(=O)Nc1cccc(C(=O)OC)c1NCc1ccc(-c2ccccc2C#N)cc1	113 to 115 °C
CC(C(=O)O)c1ccc2c(c1)C(=O)Cc1ccc(F)cc1S2 (stereo unspecified)	148 °C
COc1cc(C(=O)NC2CC(C)(C)N(C)C(C)(C)C2)ccc1-c1nc2cc(Cl)c(Cl)cc2n1C	178 to 180 °C
NS(=O)(=O)c1ccc(C(=O)NCCCN2CCOCC2)cc1	196 to 198 °C
N#Cc1cc([N+](=O)[O-])ccc1Oc1ccc(Cl)cc1	163 to 164 °C
Clc1ccc(-c2c(CC3NCCS3)cnn2-c2ccccc2)cc1 (stereo unspecified)	170 to 172 °C
Nc1ccc(C(c2ccc(N)cc2)(c2ccc(I)cc2)C(F)(F)F)cc1	171 to 172 °C
Cc1cccc(NC(=O)NC2C(=O)Nc3ccccc3NC2=O)c1	> 300 °C
O=C1CCCC(Cl)=C1C(=O)c1ccc(Cl)c(OCCn2cnnn2)c1Cl	122 to 124 °C
CN1C(=O)C(C)(C)C(=O)N(C)c2cc([N+](=O)[O-])ccc21	224 to 225 °C
Cn1nc(-c2ccncc2)c(-c2ccc(Cl)cc2)c1N	257 to 258 °C
COC(=O)c1cc(OCCCOc2ccc(-c3ccccc3)cc2)cc(OCCCOc2ccc(-c3ccccc3)cc2)c1	142 to 145 °C
CC(C)N1Cc2cccnc2N(c2ccccc2)C1=O	164 to 165 °C
CCc1oc2ccccc2c1C(O)c1ccccc1 (stereo unspecified)	98 to 99 °C
CS(=O)(=O)c1ccc(-c2sc(Nc3cc(Cl)cc(Cl)c3)nc2-c2ccc(F)cc2)cc1	287 to 288 °C
CN1C(=O)CC[C@]2(C)c3ccc(-c4ccc(F)c(Cl)c4)cc3CC[C@@H]12	114 to 116 °C
c1cnn(Cc2ccc3c(c2)-c2[nH]nc(-c4ccsc4)c2C3)n1	217 to 219 °C
CN(C)CCCn1cc(-c2ccccc2)sc1=Nc1ccccc1	84 to 86 °C
COc1cc(O)c(C(=O)C=Cc2ccc(OC(C)=O)cc2)c(OC)c1	142 °C
NC(C=Cc1cccs1)=NO	92 °C
Cc1ccc(-c2c(-c3ccc(S(N)(=O)=O)cc3)[nH]c3ccccc23)cc1	293 to 295 °C
N#Cc1cc(C(=O)NNC(=O)c2occc2-c2ccccc2Cc2ccccc2)ccc1O	175 to 176 °C
OCCc1c(-c2ccccc2)nc(Cl)n2ncnc12	104 to 105 °C
O=C(Nc1ccccc1F)c1ccccn1	112 to 115 °C

###

The molecules listed here are annotated with their melting point.
Readout Label: melting point

Molecule	Readout Label	Observed Measurement
C#CCCc1cc2ccc(C(=O)OC)cc2o1	melting point	68 to 69 °C
CN1Cc2cncn2-c2cccc(Br)c2C1=O	melting point	196 to 197 °C
CCc1cc2c(c(CC)n1)CCC(=O)N2Cc1ccc(Oc2ccccc2CC(=O)O)cc1	melting point	122 to 124 °C
CCN(CC)CCSC1=C(C#N)C(c2ccc(OC)cc2)(c2cccnc2)C(=O)N1 (stereo not given)	melting point	133 °C
CC(C)c1cccc(C(C)C)c1NC(=O)[C@H](C)N	melting point	118 to 122 °C
